Data origin, for the record: patent US20250042994A1

Assign OD450 to each entry below.
# target under test: T1, Human CD19-his protein (human, UniProt P15391 20-291)
# T1 construct: bought protein; also called human CD19 protein; recombinant human CD19-His; not shown: His tag
# T1 sequence (looked up): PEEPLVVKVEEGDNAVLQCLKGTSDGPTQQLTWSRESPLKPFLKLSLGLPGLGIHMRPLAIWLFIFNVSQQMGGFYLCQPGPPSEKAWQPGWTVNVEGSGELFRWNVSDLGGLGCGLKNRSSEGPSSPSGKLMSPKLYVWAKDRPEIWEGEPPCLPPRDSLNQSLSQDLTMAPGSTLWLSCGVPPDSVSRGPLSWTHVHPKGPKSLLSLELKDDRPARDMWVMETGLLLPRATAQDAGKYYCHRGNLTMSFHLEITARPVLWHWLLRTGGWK
# procedure details: ELISA, antibody at 10 nM
# Experimental: Human CD19-his protein (purchased from ACROBiosystems, catalog number: CD9-H52H2) was diluted with PBS to a final concentration of 4 μg/mL, and then added to a 96-well ELISA plate at 100 μl/well. […] The OD450 nm values were read by an ELISA microplate reader (Multimode Plate Reader, EnSight, purchased from Perkin Elmer).
Would you mind answering with just the numeric figure?

IN: Tell me measured OD450 for F4.58.6 (antibody, human IgG1, V domains shown, human-murine chimeric antibody, human IgG1) VH: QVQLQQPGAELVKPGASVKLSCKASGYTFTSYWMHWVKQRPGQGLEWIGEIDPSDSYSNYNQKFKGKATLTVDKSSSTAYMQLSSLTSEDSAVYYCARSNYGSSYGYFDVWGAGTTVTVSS VL: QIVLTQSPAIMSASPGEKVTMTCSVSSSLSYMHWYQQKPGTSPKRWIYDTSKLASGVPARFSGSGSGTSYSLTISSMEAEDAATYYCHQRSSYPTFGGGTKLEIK please.
OUT: 0.8

IN: Tell me measured OD450 for F4.272.13 (antibody, human IgG1, V domains shown, human-murine chimeric antibody, human IgG1) VH: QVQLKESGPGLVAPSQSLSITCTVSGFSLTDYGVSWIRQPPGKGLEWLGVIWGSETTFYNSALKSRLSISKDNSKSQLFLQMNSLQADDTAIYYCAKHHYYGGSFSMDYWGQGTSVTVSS VL: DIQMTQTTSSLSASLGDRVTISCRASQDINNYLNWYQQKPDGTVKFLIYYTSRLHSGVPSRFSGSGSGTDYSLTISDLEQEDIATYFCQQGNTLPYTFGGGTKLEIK please.
OUT: 2.14

IN: Tell me measured OD450 for F5.11.2 (antibody, human IgG1, V domains shown, human-murine chimeric antibody, human IgG1) VH: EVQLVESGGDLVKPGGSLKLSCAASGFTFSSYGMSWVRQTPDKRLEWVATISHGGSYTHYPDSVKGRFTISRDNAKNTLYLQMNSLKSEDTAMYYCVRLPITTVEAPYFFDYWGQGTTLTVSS VL: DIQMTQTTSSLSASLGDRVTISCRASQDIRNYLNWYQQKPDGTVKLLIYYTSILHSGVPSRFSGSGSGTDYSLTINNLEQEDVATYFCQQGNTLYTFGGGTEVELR please.
OUT: 2.68
